molecular target: PD-L1 (Mus musculus, UniProt Q9EP73); construct: Fc (Fc chimera); purchased R&D Systems 1019-B7-100; assay: Rescue of mouse splenocyte proliferation in the presence of recombinant PD-L1 (CFSE proliferation assay); assay type: cell-based; conditions: 100 nM compound; anti-CD3/CD28 stimulated mouse splenocytes + PD-L1; stimulated splenocytes = 100%; read-out: Percent rescue of splenocyte proliferation at 100 nM PD-L1 based assay
Sequence (Q9EP73 19-238 limits assumed): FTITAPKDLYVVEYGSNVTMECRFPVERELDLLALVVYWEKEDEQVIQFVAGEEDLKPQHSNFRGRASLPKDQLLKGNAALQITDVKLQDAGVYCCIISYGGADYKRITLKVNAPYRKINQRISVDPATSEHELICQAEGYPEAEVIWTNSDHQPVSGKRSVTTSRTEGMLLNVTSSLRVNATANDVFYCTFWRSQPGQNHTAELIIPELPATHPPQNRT
Measured quantity: activation at 0.1 µM (%)

Compound | Unit annotation | Recorded number
CC(O)[C@H](NC(=O)N[C@@H](Cc1cnc[nH]1)c1nc([C@@H](N)Cc2ccc(O)cc2)no1)C(=O)O (stereo partly drawn) [Compound 7] | % | 39
N[C@@H](Cc1ccc(O)cc1)c1noc([C@@H]2CCCN2C(=O)N[C@@H](CC(=O)O)C(=O)O)n1 [Compound 1] | % | 17
CCC(C)[C@H](NC(=O)N[C@@H](CS)c1nc([C@@H](N)Cc2ccccc2)no1)C(=O)O (stereo partly drawn) [Compound 6] | % | 15

[1] N[C@@H](CCC(=O)O)c1noc([C@H](Cc2ccc(O)cc2)NC(=O)N[C@@H](Cc2ccccc2)C(=O)O)n1 [Compound 4]
[2] CC(O)[C@H](NC(=O)N[C@@H](Cc1ccc(O)cc1)C(=O)O)c1nc([C@@H](N)Cc2c[nH]cn2)no1 (stereo partly drawn) [Compound 3]
In: Pick one: 1 or 2 . Which one has the lower reported activation at 0.1 µM? To answer, give the label that identifies your chosen option.
Out: 2

[A] CC(O)[C@H](NC(=O)NCc1nc([C@@H](N)CC(=O)O)no1)C(=O)O (stereo partly drawn) [Compound 2]
[B] CC(O)[C@H](N)c1noc([C@H](Cc2ccccc2)NC(=O)N2CCC[C@H]2C(=O)O)n1 (stereo partly drawn) [Compound 20]
In: Out of A and B , name the one with the higher activation at 0.1 µM. To answer, give the label that identifies your chosen option.
Out: A
(A: 84%, B: 35%)

[a] CC(C)[C@H](N)c1noc([C@@H](NC(=O)N[C@@H](CCC(N)=O)C(=O)O)C(C)O)n1 (stereo partly drawn) [Compound 5]
[b] CC(O)[C@H](N)c1noc([C@H](Cc2ccc(O)cc2)NC(=O)N2CCC[C@H]2C(=O)O)n1 (stereo partly drawn) [Compound 19]
In: Out of a and b , name the one with the higher activation at 0.1 µM. To answer, give the label that identifies your chosen option.
Out: b
